Taken from ChEMBL document CHEMBL1777711.

TARGET_OR_SYSTEM: 3-oxo-5-alpha-steroid 4-dehydrogenase 2 (Rattus norvegicus)
Sequence (P31214 whole entry): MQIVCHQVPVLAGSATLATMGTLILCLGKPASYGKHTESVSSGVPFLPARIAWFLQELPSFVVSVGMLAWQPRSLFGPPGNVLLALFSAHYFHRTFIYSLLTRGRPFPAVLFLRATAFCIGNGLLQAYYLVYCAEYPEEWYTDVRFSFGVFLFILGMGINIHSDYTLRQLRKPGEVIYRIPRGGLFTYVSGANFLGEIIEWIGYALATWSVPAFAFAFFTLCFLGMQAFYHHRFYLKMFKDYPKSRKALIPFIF
VALUE_TYPE: pIC50
Field pIC50 (float): negative decimal logarithm of the concentration in molar.

Prompt line: Param item = CC(C)(C)NC(=O)[C@H]1CC[C@H]2[C@@H]3CC[C@H]4NC(=O)C=C[C@]4(C)[C@H]3CC[C@]12C [FINASTERIDE] ; retrieve measured pIC50.
Response line: 6.83
